Test system: PA-1 human ovary teratocarcinoma cells
Test: Cytotoxicity, resazurin metabolism assay, PA-1
Format: cell-based
Conditions: mean ± SD
Readout Kind: IC50 (µM)
The reply should contain only the number, in µM.

Answered cases to consult:
Please report the measured IC50 for C=C(C)C1CCC2(CO)CCC3(C)C(CCC4C5(C)CCC(OC6OCC(O)C(O)C6O)C(C)(C)C5CCC43C)C12 [Compound 14, 3-O-α-D-Arabinopyranoside of Betulin]
41

Please report the measured IC50 for C=C(C)C1CCC2(CO)CCC3(C)C(CCC4C5(C)CCC(OC6OC(C)C(O)C(O)C6O)C(C)(C)C5CCC43C)C12 [Compound 13, 3-O-α-L-Rhamnopyranoside of Betulin]
180

--- query ---
Please report the measured IC50 for CC1(C)CC[C@]23CC[C@]4(C)[C@H](CC[C@@H]5[C@@]6(C)CC[C@H](O[C@@H]7O[C@H](CO)[C@H](O)[C@H](O)[C@H]7O)C(C)(C)[C@@H]6CC[C@]54C)[C@H]2[C@H]1OC3 [Compound 36, 3-O-β-D-Galactopyranoside of Allobetulin]
45

---

Test system: B16-F1 mouse melanoma cells
Test: Cytotoxicity, resazurin metabolism assay, B16-F1
Type: cell-based
Details: 48 h, mean ± SD
The following compounds are shown together with reported IC50 values.
The reply should contain only the number, in µM.

Please report the measured IC50 for C=C(C)[C@@H]1CC[C@]2(CO)CC[C@]3(C)[C@H](CC[C@@H]4[C@@]5(C)CC[C@H](O)C(C)(C)[C@@H]5CC[C@]43C)[C@@H]12 [Compound 2, Betulin, reference compound]
13.8

Next:
Please report the measured IC50 for C=C(C)[C@@H]1CC[C@]2(COC(C)=O)CC[C@]3(C)[C@H](CC[C@@H]4[C@@]5(C)CC[C@H](O)C(C)(C)[C@@H]5CC[C@]43C)[C@@H]12
43

---

System: SK-Mel-2 human melanoma cells
Experiment: Cytotoxicity, resazurin metabolism assay, SK-Mel-2
Format: cell-based
Details: mean ± SD
Readout Kind: log10(IC50) (log10 of the value in µM)
Values below are the log10 of the recorded IC50, with µM as the unit.

Answered cases to consult:
Please report the measured log10(IC50) for C=C(C)C1CCC2(CO)CCC3(C)C(CCC4C5(C)CCC(OC6OC(C)C(O)C(O)C6O)C(C)(C)C5CCC43C)C12 [Compound 13, 3-O-α-L-Rhamnopyranoside of Betulin]
2.04

Please report the measured log10(IC50) for CC1(C)CCC23CCC4(C)C(CCC5C6(C)CCC(OC7OC(CO)C(O)C(O)C7O)C(C)(C)C6CCC54C)C2C1OC3 [Compound 33, 3-O-β-D-Glucopyranoside of Allobetulin]
1.57

Please report the measured log10(IC50) for C=C(C)[C@@H]1CC[C@]2(C(=O)O)CC[C@]3(C)[C@H](CC[C@@H]4[C@@]5(C)CC[C@H](O[C@@H]6O[C@@H](C)[C@H](O)[C@@H](O)[C@H]6O)C(C)(C)[C@@H]5CC[C@]43C)[C@@H]12
1.30

Next:
Please report the measured log10(IC50) for C=C(C)C1CCC2(C(=O)O)CCC3(C)C(CCC4C5(C)CCC(OC6OC(CO)C(O)C(O)C6O)C(C)(C)C5CCC43C)C12 (stereo not drawn)
0.67

Please report the measured log10(IC50) for C=C(C)[C@@H]1CC[C@]2(C(=O)O)CC[C@]3(C)[C@H](CC[C@@H]4[C@@]5(C)CC[C@H](O[C@H]6OC[C@@H](O)[C@@H](O)[C@@H]6O)C(C)(C)[C@@H]5CC[C@]43C)[C@@H]12
1.79

Please report the measured log10(IC50) for C=C(C)[C@@H]1CC[C@]2(C)CC[C@]3(C)[C@H](CC[C@@H]4[C@@]5(C)CC[C@H](O[C@H]6OC[C@@H](O)[C@@H](O)[C@@H]6O)C(C)(C)[C@@H]5CC[C@]43C)[C@@H]12 [Compound 11, 3-O-α-D-Arabinopyranoside of Lupeol]
1.00

Please report the measured log10(IC50) for C=C(C)C1CCC2(CO)CCC3(C)C(CCC4C5(C)CCC(OC6OC(CO)C(O)C(O)C6O)C(C)(C)C5CCC43C)C12 [Compound 26, 3-O-β-D-Mannopyranoside of Betulin]
0.94

Please report the measured log10(IC50) for C=C(C)[C@@H]1CC[C@]2(C(=O)OC)CC[C@]3(C)[C@H](CC[C@@H]4[C@@]5(C)CC[C@H](O[C@@H]6O[C@H](CO)[C@@H](O)[C@H](O)[C@H]6O)C(C)(C)[C@@H]5CC[C@]43C)[C@@H]12
2.01

Please report the measured log10(IC50) for C=C(C)[C@@H]1CC[C@]2(C(=O)OC)CC[C@]3(C)[C@H](CC[C@@H]4[C@@]5(C)CC[C@H](O[C@H]6OC[C@@H](O)[C@@H](O)[C@@H]6O)C(C)(C)[C@@H]5CC[C@]43C)[C@@H]12
1.20
